# MIC per entry
Test system: Pseudomonas Aeruginosa
Experiment: in vitro antibacterial activity, agar dilution method (MIC)
Assay type: cell-based
Settings: Pseudomonas aeruginosa, strain BMH10; BHI agar, 20-24 hours; read-out: MIC

>  <MOLECULE>
CCC1OC(=O)CC(O)C(C)C(OC2OC(C)CC(N(C)C)C2O)C(CC=O)CC(C)C(N(C)C)CCC(C)=CC1COC(C)=O (stereo not shown)

>  <RESULT_COMPARATOR>
>

>  <MIC / µg/mL>
100

$$$$
>  <MOLECULE>
CC[C@H]1OC(=O)C[C@@H](O)[C@H](C)[C@@H](O[C@@H]2O[C@H](C)C[C@H](N(C)C)[C@H]2O)[C@@H](CC=O)C[C@@H](C)C(=O)/C=C/[C@]2(C)O[C@H]2[C@@H]1C [Rosaramicin, reference compound]

>  <RESULT_COMPARATOR>
=

>  <MIC / µg/mL>
50

$$$$
>  <MOLECULE>
CCC1OC(=O)CC(O)C(C)C(OC2OC(C)CC(N(C)C)C2O)C(CC=O)CC(C)C(N(C)C)C=CC2(C)OC2C1C (stereo not shown)

>  <RESULT_COMPARATOR>
=

>  <MIC / µg/mL>
50

$$$$
>  <MOLECULE>
CCC1OC(=O)CC(O)C(C)C(OC2OC(C)CC(N(C)C)C2O)C(CC=O)CC(C)C(N(C)C)CCC2(C)OC2C1C (stereo not shown)

>  <RESULT_COMPARATOR>
>

>  <MIC / µg/mL>
100

$$$$
>  <MOLECULE>
CCC1OC(=O)CC(O)C(C)C(OC2OC(C)C(O)C(N(C)C)C2O)C(CC=O)CC(C)C(N(C)C)C=CC(C)=CC1COC(C)=O (stereo not shown)

>  <RESULT_COMPARATOR>
=

>  <MIC / µg/mL>
100

$$$$
>  <MOLECULE>
CCC1OC(=O)CC(O)C(C)C(OC2OC(C)CC(N(C)C)C2O)C(CC=O)CC(C)C(N(C)C)C=CC(C)=CC1COC(C)=O (stereo not shown)

>  <RESULT_COMPARATOR>
=

>  <MIC / µg/mL>
100

$$$$
>  <MOLECULE>
CCC1OC(=O)CC(O)C(C)C(OC2OC(C)C(O)C(N(C)C)C2O)C(CC=O)CC(C)C(N(C)C)CCC(C)=CC1COC(C)=O (stereo not shown)

>  <RESULT_COMPARATOR>
>

>  <MIC / µg/mL>
100

$$$$
